Source of measurements: ChEMBL document CHEMBL4251546

- experiment-notes: Thermodynamic solubility of the compound in PBS at pH 7.4
- Type: physicochemical
- condition-details: read-out: Therm_solubility
Listing of recorded solubility thermodynamic by entry.
measured-quantity: solubility thermodynamic (µM)

N#Cc1ccc([C@H](C(=O)NCC2CC2)N2CC3CCC(C2)N3C(=O)c2cc(F)ccc2F)cc1 | 326
N#Cc1ccc([C@H](C(=O)NCC2CC2)N2CC3CCC(C2)N3C(=O)c2cc(F)cc(F)c2)cc1 | 322
O=C(NCc1ccccc1)[C@@H](c1ccccc1)N1CCN(Cc2ccccc2)CC1 | 19
O=C(NCc1ccccc1)[C@@H](c1ccccc1)N1CC2CC(C1)N2C(=O)c1cc(F)ccc1Cl | 83
